Read-out: Cytochrome P450 (CYP1A1), CYP1A1 (gene 1543)
experimentNotes: LTEA_HepaRG_CYP1A1: Life Technologies and Expression Analysis (LTEA) Assay for Cytochrome P450 (CYP1A1) using HepaRG (AID 2283454)
assayConditions: mRNA level, 48 h; actives raise or lower the signal
Activity calls are given as the source filed them. The calls were made as follows: active = hit-call score of the fitted dose curve at least 0.9, where 1 is the maximum; inactive = score below 0.9.
quantityMeasured: AC50

CCON=C(CC)C1=C(O)CC(c2c(C)cc(C)cc2C)CC1=O (configuration not stated) :: inactive
COP(N)(=O)SC (configuration not stated) :: inactive
CN(C)C(=S)SSC(=S)N(C)C :: inactive
CCc1nn(C)c(C(=O)NCc2ccc(C(C)(C)C)cc2)c1Cl :: inactive
C=CCC1=C(C)[C@@H](OC(=O)[C@@H]2[C@@H](C=C(C)C)C2(C)C)CC1=O :: 63 µM (active)
COC(=O)N(OC)c1ccccc1COc1ccn(-c2ccc(Cl)cc2)n1 :: 13 µM (active)
N#Cc1cc(Br)c(O)c(Br)c1 :: 73.6 µM (active)
CCOC(=O)CC(SP(=S)(OC)OC)C(=O)OCC (configuration not stated) :: 22.8 µM (active)

Provide AC50 values for the following items, in order.
1. CCCCOC(=O)c1ccccc1C(=O)OCCCC
2. CC(Oc1ccc(Cl)cc1Cl)C(=O)O (configuration not stated)
3. COc1cnc(OC)n2nc(NS(=O)(=O)c3c(OCC(F)F)cccc3C(F)(F)F)nc12

stdout:
inactive
50 µM (active)
32.8 µM (active)

stdin: Check the records and state AC50 for Cc1c(F)c(F)c(COC(=O)C2C(/C=C(\Cl)C(F)(F)F)C2(C)C)c(F)c1F (configuration not stated)
stdout: 50 µM (active)

---

experimentNotes: IUF_NPC1b_proliferation_BrdU_72hr: Leibniz Research Institute for Environmental Medicine (IUF) 72-hour Neural Progenitor Cell Bromodeoxyuridine (BrdU) Proliferation Assay (NPC1b) (AID 2284207)
Active and inactive are the calls of the source. The calls were made as follows: active = hit-call score of the fitted dose curve at least 0.9, where 1 is the maximum; inactive = score below 0.9.
Assign a class; possible classes are active, inactive

C=CC1(C)OC(=O)N(c2cc(Cl)cc(Cl)c2)C1=O (stereo not drawn) :: inactive
CN(C)C(=S)SSC(=S)N(C)C :: active
CNC(=O)ON=CC(C)(C)SC :: inactive

stdin: I'd appreciate the recorded outcome for CCCCOC(=O)c1ccccc1C(=O)OCCCC from this test.
stdout: inactive

stdin: Please let me know the test result on file for CCOc1cc(Oc2ccc(C(F)(F)F)cc2Cl)ccc1[N+](=O)[O-] .
stdout: inactive

---

Read-out: Tumor necrosis factor receptor 1 (TNFRSF1A), TNFRSF1A (gene 7132)
experimentNotes: LTEA_HepaRG_TNFRSF1A: Life Technologies and Expression Analysis (LTEA) Assay for Tumor necrosis factor receptor 1 (TNFRSF1A) using HepaRG (AID 2283535)
assayConditions: mRNA level, 48 h; actives raise or lower the signal
Active and inactive are the calls of the source. How the source made its calls: active means hit-call score of the fitted dose curve at least 0.9, where 1 is the maximum; inactive means score below 0.9.
quantityMeasured: AC50

CCOC(=O)CC(SP(=S)(OC)OC)C(=O)OCC (stereo not drawn) :: inactive
CNC(=S)S :: inactive
CCOc1cc(Oc2ccc(C(F)(F)F)cc2Cl)ccc1[N+](=O)[O-] :: inactive
COC(=O)N(OC)c1ccccc1COc1ccn(-c2ccc(Cl)cc2)n1 :: 77.1 µM (active)
CCCCNC(=O)n1c(NC(=O)OC)nc2ccccc21 :: inactive

Below are 4 molecules. Give each one its AC50.
1. COC(=O)c1ccccc1C(=O)OC
2. C=CCC1=C(C)[C@@H](OC(=O)[C@@H]2[C@@H](C=C(C)C)C2(C)C)CC1=O
3. CO/C=C(/C(=O)OC)c1ccccc1Oc1cc(Oc2ccccc2C#N)ncn1
4. C=CCC1=C(C)C(OC(=O)C2C(C=C(C)C)C2(C)C)CC1=O (stereo not drawn)

stdout:
inactive
inactive
inactive
inactive

Return reported AC50 values for all items listed beneath this line.
1. OC(c1ccc(Cl)cc1)(c1cncnc1)c1ccccc1Cl (stereo not drawn)
2. CCc1nn(C)c(C(=O)NCc2ccc(C(C)(C)C)cc2)c1Cl
3. Cc1c(F)c(F)c(COC(=O)C2C(/C=C(\Cl)C(F)(F)F)C2(C)C)c(F)c1F (stereo not drawn)
4. COP(N)(=O)SC (stereo not drawn)

stdout:
1: inactive; 2: 27.4 µM (active); 3: inactive; 4: inactive
